Taken from PubChem BioAssay (NCI).

System: SNB-75 CNS
method description: NCI tumour cell line growth inhibition, 48 h
readout kind: TGI

These solved cases illustrate the format of a correct answer.
{"columns": ["molecule", "TGI"],
 "data": [
  ["O=c1[nH]c(C2CCCCC2)nc2ccc(Cl)cc12", "> 100 µM"],
  ["Cc1cccc(Nc2ncc(-c3ccccc3)o2)c1", "> 25 µM"],
  ["C=C1C(=O)O[C@H]2[C@H]1CC/C(COC(=O)NCCc1ccc(Br)cc1)=C\\CC[C@@]1(C)O[C@@H]21", "2.45 µM"],
  ["O=C(N/N=C/c1ccc(O)cc1)NNCCO", "> 100 µM"],
  ["CC(C)(C)c1cc([Si](C)(C)C)c(C#N)c([Si](C)(C)C)c1", "> 100 µM"],
  ["COc1cc2ccnc3c2c(c1OC)N(C)C=C3", "> 100 µM"],
  ["Cn1cnc([N+](=O)[O-])c1Sc1nnc(-c2ccc(Cl)cc2)n1C", "46.7 µM"],
  ["CN1C(=O)c2c(c3c4ccccc4n(C)c3c3c2c2ccccc2n3C)C1=O", "> 100 µM"]
]}

Supply recorded TGI for CCN1CC2(CO)CCC(OC)C34C5CC6C(OC)CC(O)(C5C6OC)C(O)(C(OC)C23)C14 (configuration not stated) here.
> 375 µM

Supply recorded TGI for CCOC(=O)C1=C(C)NC(c2ccccc2)=C(C(=O)OCc2ccccc2)C1C#Cc1ccccc1 (configuration not stated) here.
> 100 µM

Supply recorded TGI for O=C(COc1ccc(Cl)cc1Cl)NNc1ccc([N+](=O)[O-])cc1 here.
33.7 µM

Supply recorded TGI for C/C(COc1ccccc1)=N\NC(N)=S here.
> 100 µM
